- System: P. berghei parasite load in HepG2 cells
- test.details: P. berghei liver stage parasite load in HepG2 cells
- Format: cell-based
- condition.details: Plasmodium berghei, HepG2, read-out: EC50 P. berghei parasite load, HepG2 cells
readout: EC50 (µM)
Only the number, expressed in µM, is required.

Noted for CCCn1/c(=N/C(=O)c2cccc(C(N)=O)c2)[nH]c2ccccc21 [takinib] : its EC50 reads 6.7

* * *

- target.of.assay: PfPK9 (Plasmodium falciparum, UniProt Q8IEG4)
- test.details: ATP-competitive binding assay, GFP-PfPK9 on ATP-sepharose resin
readout: Kd (nM)
Only the number, expressed in nM, is required.

Item: CCCn1/c(=N/C(=O)c2cccc(C(N)=O)c2)[nH]c2ccccc21 | System: PfPK9 (Plasmodium falciparum, UniProt Q8IEG4) | Kd: 460

* * *

- target.of.assay: PfPK9 (Plasmodium falciparum)
- test.details: ATP-competitive binding assay, GFP-PfPK9 on ATP-sepharose resin
- condition.details: read-out: Kd(app) PfPK9 binding; converted from EC50; dose-response 0–500 μM
readout: Kd (µM)
Only the number, expressed in µM, is required.

Noted for CCCn1c(NC(=O)c2cccc(C(=O)O)c2)nc2ccccc21 [HS220] : its Kd reads 4.1

* * *

- System: P. berghei parasite load in HuH7 cells
- test.details: P. berghei liver stage parasite load in HuH7 cells
- Type: cell-based, Plasmodium berghei
- condition.details: read-out: EC50 P. berghei parasite load; HuH7 cells
readout: EC50

Item: CCCn1c(NC(=O)c2cccc(C(=O)O)c2)nc2ccccc21 [HS220] | System: P. berghei parasite load in HuH7 cells | EC50: 43 µM

* * *

- target.of.assay: PfPK5 (Plasmodium falciparum, UniProt P61075)
- Sequence (P61075 whole entry): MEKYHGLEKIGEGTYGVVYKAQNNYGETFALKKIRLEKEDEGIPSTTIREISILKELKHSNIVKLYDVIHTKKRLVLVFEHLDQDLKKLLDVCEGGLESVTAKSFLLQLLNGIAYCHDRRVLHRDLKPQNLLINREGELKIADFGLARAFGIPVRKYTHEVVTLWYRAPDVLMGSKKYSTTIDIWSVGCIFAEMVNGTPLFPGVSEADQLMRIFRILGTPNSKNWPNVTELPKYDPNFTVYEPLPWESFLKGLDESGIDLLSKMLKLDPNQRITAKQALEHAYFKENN
- test.details: KINOMEScan affinity for PfPK5
- Type: binding
pKd: −log10 of the molar value.
readout: pKd

Item: CCCn1/c(=N/C(=O)c2cccc(C(N)=O)c2)[nH]c2ccccc21 [takinib] | System: PfPK5 (Plasmodium falciparum, UniProt P61075) | pKd: < 4.52

Measured values drawn from paper PMC6430656 for this set.
